Measured cytotoxicity at 10 µM of individual entries
protocol text: Toxicity liver stage against HepG2, at 10uM
Type: cell-based
Set-up: test concentration 10 uM, cell line HepG2-A16-CD81EGFP
assay setup: human, HepG2-A16-CD81EGFP cells; read-out: INHIBITION
Please report the result as a number followed by the unit.

Recorded results for 3 compounds are shown here.
CCC(=O)N1CCC(Cc2ccccc2-c2ccccc2)(C(N)=O)C1 (configuration not stated) ... -0.105%
Cc1cc(C(=O)N2CCc3ncc(CN4CCCCC4)n3CC2)no1 ... -100%
Cc1ncsc1CCN(C)C(=O)c1ncccc1O ... -5.43%

Reported cytotoxicity at 10 µM, compound CC(NC(=O)c1ccoc1)C(=O)N(C)Cc1ccc(O)cc1 (configuration not stated) : ____
-3.59%

Reported cytotoxicity at 10 µM, compound Clc1cnccc1N1CCC(OC2CCOCC2)CC1 : ____
-0.439%

Reported cytotoxicity at 10 µM, compound CCOCC(O)CN1CCN(C(=O)C2CCC2)CC1 (configuration not stated) : ____
-11.8%

Reported cytotoxicity at 10 µM, compound CCc1ccc(S(=O)(=O)NCC2CCN(c3cnccn3)CC2)s1 : ____
7.69%

* * *

protocol text: Toxicity liver stage against HepG2, at 10uM
Format: cell-based
Parameters: test concentration 10 uM, cell line HepG2-A16-CD81EGFP
assay setup: human, HepG2-A16-CD81EGFP cells; read-out: INHIBITION
assay metric: cytotoxicity at 10 µM (%)
A number alone suffices; assume %.

OCC1(O)CCCN(Cc2noc(-c3ccccc3)n2)C1 (centres undefined) ... -4.76
O=C(NCCCNc1ccc(C(F)(F)F)cn1)c1ccc(F)cc1F ... 3.61

Reported cytotoxicity at 10 µM, compound CCNC(=O)NCc1nn(CCN2CCCC2)c(=O)c2ccccc12 : ____
-3.85

Reported cytotoxicity at 10 µM, compound CNC(=O)C1(c2cnccn2)CCCN1C(=O)c1cccnc1OC (centres undefined) : ____
-8.55

Reported cytotoxicity at 10 µM, compound Cc1n[nH]c(C)c1CCC(=O)N[C@@H]1CCC[C@@H](Oc2ccccc2)[C@@H]1O : ____
3.01

Reported cytotoxicity at 10 µM, compound O=C(Nc1ccccc1Cl)N1CCN(CC2CC2)[C@@H]2CS(=O)(=O)C[C@@H]21 : ____
2.72

Reported cytotoxicity at 10 µM, compound COCCCNc1c(-c2ccc(C)cc2)c(=O)c1=O : ____
12.5

Reported cytotoxicity at 10 µM, compound CN(C)c1ncnc2c1CCN(c1ccccc1)CC2 : ____
13.4

* * *

Measured cytotoxicity at 10 µM of individual entries
protocol text: Toxicity liver stage against HepG2, at 10uM
Type: cell-based
Parameters: test concentration 10 uM, cell line HepG2-A16-CD81EGFP
assay setup: human, HepG2-A16-CD81EGFP cells; read-out: INHIBITION
A number alone suffices; assume %.

Recorded results for 8 molecules are shown here.
Cn1ncc2c1C(COCC1CC1)CN(Cc1ccco1)C2 (centres undefined) ... -78.6
CNc1cc(C(=O)N2CCC3(CC2)Nc2ccccc2NC3=O)ccn1 ... 3.46
COCCN1CCCC1c1cccc2c1OCCO2 (centres undefined) ... -9.54
CN1CCC(CCc2ccnc(Nc3cnccn3)c2)CC1 ... -12.6
COCCNc1ncc(-c2cccc(F)c2)c(-c2nccn2C)n1 ... 13.4
Cc1ccc(CN2CCC3(CC(=O)N(c4ccc5c(c4)OCO5)C3)C2)o1 (centres undefined) ... -70.2
Cn1cc(Cl)c(CN2CCCC(Cn3cc(CO)nn3)C2)n1 (centres undefined) ... 1.18
O=C(O)[C@@H]1CN(C(=O)NCC2CCCCC2)C[C@H]1c1ccccn1 ... 7.15

Reported cytotoxicity at 10 µM, molecule COc1ccnc(N2CCN(C(=O)c3cnn(C)c3C3CC3)CC2)n1 : ____
-2.88

Reported cytotoxicity at 10 µM, molecule CC(=O)N1CCC2(CCN(C(=O)c3ccc(C)c(C(F)(F)F)c3)CC2)C1 : ____
3.73

Reported cytotoxicity at 10 µM, molecule O=C(O)CC1COCCN1Cc1ccccc1OCCc1ccccc1 (centres undefined) : ____
2.4

Reported cytotoxicity at 10 µM, molecule CCCc1nc(CN(CC)C(=O)c2ccc3[nH]cnc3c2)no1 : ____
3.98

Reported cytotoxicity at 10 µM, molecule O=C([C@H]1CN(Cc2cccnc2)C[C@H]2OCC[C@@H]12)N1CCCO1 : ____
8.98

Reported cytotoxicity at 10 µM, molecule O=C(c1cnccn1)N1CCCC2(CCCN2Cc2cccnc2)C1 (centres undefined) : ____
-1.01

* * *

Measured cytotoxicity at 10 µM of individual entries
protocol text: Toxicity liver stage against HepG2, at 10uM
Type: cell-based
Set-up: test concentration 10 uM, cell line HepG2-A16-CD81EGFP
assay setup: human, HepG2-A16-CD81EGFP cells; read-out: INHIBITION

Recorded results for 5 molecules are shown here.
CC(C)(C)c1ccn(C2(C(=O)O)CCN(c3ccnc(N)n3)CC2)n1 ... 3.63%
Cc1c(C(=O)N2CCCOCC2)nnn1-c1cccc2cnccc12 ... 11.8%
CN1CC(=O)N(c2cccc(F)c2)CC12CCN(CC1CC1)C2 (stereo unspecified) ... 2.26%
CCn1nccc1C(=O)N1CCCCC1CCc1ccc(O)cc1 (stereo unspecified) ... 2.62%
Cc1cnc(CCNC(=O)C2CCN(S(=O)(=O)c3ccc(F)cc3)C2)s1 (stereo unspecified) ... 2.56%

Reported cytotoxicity at 10 µM, molecule CN(Cc1ccc(C2CC(=O)Nc3cc4[nH]ncc4cc32)o1)S(C)(=O)=O (stereo unspecified) : ____
34.1%

Reported cytotoxicity at 10 µM, molecule c1ccc(-c2nc3c(c(NCCc4c[nH]cn4)n2)CCNC3)cc1 : ____
-123%

Reported cytotoxicity at 10 µM, molecule COc1ccc(-c2cc(C3CCNCC3)ccn2)cc1 : ____
0.288%

Reported cytotoxicity at 10 µM, molecule Cc1nn(-c2ccccc2)nc1C(=O)NCC(c1ccsc1)N(C)C (stereo unspecified) : ____
-22.3%

Reported cytotoxicity at 10 µM, molecule CC(=O)c1ccc(C(=O)N2C[C@H]3CC[C@@H](C2)N(Cc2ccccc2)C3)s1 : ____
-13.3%

Reported cytotoxicity at 10 µM, molecule COc1cncc(N2CCN(Cc3ccncc3Cl)CC2)n1 : ____
1.66%

Reported cytotoxicity at 10 µM, molecule O=C(NCCn1nc(C2CCNC2)c2cccnc21)C1CCC1 (stereo unspecified) : ____
-7.87%

Reported cytotoxicity at 10 µM, molecule O=C(Nc1ccc(Cl)cc1)c1nn(C2CCS(=O)(=O)C2)c2c1CCCC2 (stereo unspecified) : ____
2.96%

Reported cytotoxicity at 10 µM, molecule Cc1cc(O)cc(=O)n1CCCC(=O)Nc1n[nH]c2cccc(F)c12 : ____
-8.85%

Reported cytotoxicity at 10 µM, molecule CCN1CC(O)CN(C(=O)c2cccc(C(F)(F)F)c2)CC1=O (stereo unspecified) : ____
4.04%

Reported cytotoxicity at 10 µM, molecule O=C(CC(F)(F)F)N1C[C@H]2CC[C@@H](C1)N(Cc1ccccc1)C2=O : ____
7.71%

Reported cytotoxicity at 10 µM, molecule NC(=O)c1cnc2n1CCN(C(=O)c1ccc(Cn3cccc3)cc1)C2 : ____
-1.5%

Reported cytotoxicity at 10 µM, molecule CN1C(Cn2cccn2)C[C@@H]2CN(C(=O)c3cccc(C#N)c3)CC[C@@H]21 (stereo partly specified) : ____
3.1%

Reported cytotoxicity at 10 µM, molecule CN1CCn2nc(-c3nc4ccccc4n3C)cc2C1 : ____
-6.99%

Reported cytotoxicity at 10 µM, molecule CS(=O)(=O)NCC1CCCCN1Cc1cccc(C#N)c1 (stereo unspecified) : ____
0.528%

Reported cytotoxicity at 10 µM, molecule O=C(C1CCCC1)N1CC2(CCNC2)OCc2ccccc21 (stereo unspecified) : ____
8.9%

Reported cytotoxicity at 10 µM, molecule COCc1nc(C2CCN(Cc3ncc[nH]3)CC2)no1 : ____
-23.1%

Reported cytotoxicity at 10 µM, molecule Cc1nn(C)cc1C1CC(=O)Nc2c1cnn2C(C)(C)C (stereo unspecified) : ____
-5.45%

Reported cytotoxicity at 10 µM, molecule CC(=O)NCC1CCC2(CCN(c3ncnc4oc(C)nc34)CC2)O1 (stereo unspecified) : ____
1.32%

Reported cytotoxicity at 10 µM, molecule Cc1cc(C)n(CC2CN(Cc3nc(C)c(C)o3)CCO2)n1 (stereo unspecified) : ____
4.17%

* * *

Measured cytotoxicity at 10 µM of individual entries
protocol text: Toxicity liver stage against HepG2, at 10uM
Type: cell-based
Parameters: test concentration 10 uM, cell line HepG2-A16-CD81EGFP
assay setup: human, HepG2-A16-CD81EGFP cells; read-out: INHIBITION
A number alone suffices; assume %.

Recorded results for 5 compounds are shown here.
COCCNC(=O)C(C)N1CCN(C)CC1 (stereo unspecified) ... -1.21
CC1=C[C@@H](CC#N)[C@H](C(C)C)C[C@H]1CC(=O)N1CCN(CCO)CC1 ... 4.62
NC(=O)C(NC(=O)CSCc1ccc(Cl)s1)c1ccccc1 (stereo unspecified) ... 9.12
O=C1COc2cc(C(=O)NS(=O)(=O)c3ccc(F)c(F)c3)ccc2N1 ... -2.34
CCOCC(=O)NS(=O)(=O)c1ccc(F)cc1C(F)(F)F ... 3.25

--- query ---
Reported cytotoxicity at 10 µM, compound Cc1nn(C)cc1S(=O)(=O)NC1(CN2CCOCC2)CCCCC1 : ____
-8.27

Values from ChEMBL document CHEMBL4513216
